Hi there, I'd appreciate the recorded composite z-score for every entry that follows.
assay: small-molecule binders of probe aNOTCH3, primary screen, biochemical, small-molecule microarray, 635/667 nm fluorescence (AID 1120); settings: higher = more signal;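 also: probe is a biotin-tagged antibody raised against NOTCH3 rather than NOTCH3 protein; score merges spot fluorescence near 667 nm with spot signal to noise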
Give bare numbers.

Sample records with composite z-score:
1) COc1ccc(OC[C@H]2Cc3c(-c4ccccc4)nc4c(c3CO2)CN(CCOc2ccccc2)CC4)cc1; 0.0562
2) C=CCOC(=O)[C@H]1[C@@H]2C(=O)O[C@@H](c3ccccc3)[C@@H](c3ccccc3)N2[C@@H](c2ccc(OCCOC(=O)[C@H]3C[C@H]4C(=O)N[C@@H](Cc5ccccc5)C(=O)N4[C@H]3c3ccc(O)cc3)cc2)[C@]12C(=O)Nc1ccccc12; -0.0932
3) COC(=O)[C@@]1(Cc2ccc(OC)cc2)[C@H]2c3cc(C(=O)N4CCCC4)n(Cc4cc(F)c(F)c(F)c4)c3C[C@H]2CN1C(=O)c1ccccc1; 1.69
4) CC(C)C[C@@H]1NC(=O)[C@H]2C[C@@H](C(=O)NCCCCCCN(C)C)[C@@H](c3cccc(OCCO)c3)N2C1=O; 0.16
5) CCOC(=O)CCN1C(=O)[C@H]2[C@H]3[C@H](O)[C@H](O)CC(=NNC(=O)OCc4ccc(OC)cc4)[C@@H]3CC[C@H]2C1=O; -0.153

// each molecule listed below needs its composite z-score
1. CO[C@H]1COC(=O)CC=C[C@H](C)[C@@H](NS(=O)(=O)c2ccc(C)cc2)COC(=O)CC=C[C@@H]1C
2. c1ccc(C2NCCc3c2[nH]c2ccccc32)cc1 (centres undefined)
3. CC(C)NC(=O)[C@@]1(C)c2ccccc2C(=O)N(Cc2cc(F)cc(C(F)(F)F)c2)[C@H]1c1ccc(CO)cc1
4. C[C@H]1CC[C@@H](C(=O)O)N[C@@H]1c1ccc(C#CCN(C)C)cc1
5. CCN1C(=O)[C@H]2[C@H]3[C@H](O)[C@H](O)CC(=NOC[C@@H](C)[C@H](OCc4ccccc4)C(C)C)[C@@H]3CC[C@H]2C1=O
6. O=C1[C@H]2[C@H]3[C@H](O)[C@H](O)CC(=NO[C@@H]4O[C@H](CO)[C@@H](O)[C@H](O)[C@H]4O)[C@@H]3CC[C@H]2C(=O)N1Cc1ccc2c(c1)OCO2
7. O=C(NN=C1C[C@@H](O)[C@@H](O)[C@@H]2[C@@H]3C(=O)N(c4cccc(Oc5ccccc5)c4)C(=O)[C@@H]3CC[C@H]12)OCc1ccccc1
8. CCOC(=O)NN=C1C[C@@H](O)[C@@H](O)[C@@H]2[C@@H]3C(=O)N(C4CCCCC4)C(=O)[C@@H]3CC[C@H]12

Key:
1. -0.0436
2. 0.0876
3. 0.191
4. 0.0556
5. -0.152
6. -0.004
7. -0.0204
8. 0.0242

Exercise: Supply composite z-score value. Item: `CCOC(=O)CCN1C(=O)[C@H]2[C@H]3[C@H](O)[C@H](O)CC(=NOC[C@@H](O)COCc4ccco4)[C@@H]3CC[C@H]2C1=O`
Key: -0.0932

Sourced from PubChem BioAssay
